Origin of values: ChEMBL document CHEMBL1201862

System: SW-620
Assay: NCI tumour cell line growth inhibition, 48 h
Calls of active or inactive are those of the source. No stated cut-off is given here; in the data, active = GI50 up to about 1.1 µM and inactive = higher.
assay_readout: GI50

Query string: May I ask what GI50 has been recorded for CC(=O)OC1/C=C(\C)C(OC(C)=O)C/C=C(/C)CCC2C(/C=C/C1=O)C2(C)C (stereo unspecified) ?
Result string: > 100 µM (inactive)

Query string: Same read-out for C(=C/c1nc2ccccc2o1)/c1ccc2c(c1)OCO2 ?
Result string: 16.7 µM (inactive)

Query string: Same read-out for O/N=C\C(=N/O)Nc1ccc(Cc2ccc(NC(/C=N\O)=N/O)cc2)cc1 ?
Result string: 52.1 µM (inactive)

Query string: Same read-out for COc1ccc(/N=C\c2cc(OC)c(OC)c(OC)c2)cc1 ?
Result string: 14.3 µM (inactive)

Query string: Same read-out for Nc1c([N+](=O)[O-])cc2c3c(cccc13)CC2 ?
Result string: 82.2 µM (inactive)

Query string: Same read-out for COc1cc2c(cc1O)CC1c3c(cc(O)c(OC)c3-2)CCN1C (stereo unspecified) ?
Result string: > 100 µM (inactive)

Query string: Same read-out for COc1ccc(OCC(C)(C)O)cc1 ?
Result string: > 100 µM (inactive)

Query string: Same read-out for CC(C)COC(=O)c1ccc(/N=C\c2ccc(/C=N/c3ccc(C(=O)OCC(C)C)cc3)cc2)cc1 ?
Result string: > 100 µM (inactive)

Query string: Same read-out for O=[PH](O)c1ccccn1 ?
Result string: > 100 µM (inactive)

Query string: Same read-out for COc1ccc(/C=N/NC(=O)CSc2nc(-c3ccccc3)c(-c3ccccc3)[nH]2)cc1OC ?
Result string: 29.9 µM (inactive)

Query string: Same read-out for O=CNCNCCO ?
Result string: 46 µM (inactive)
